biological target: P2Y purinoceptor 1 (Homo sapiens, UniProt P47900); test: Activation of human P2Y1 receptor expressed in human 1321N1 cells assessed as induction of calcium flux by FLIPR assay; type: functional, cell-based
Sequence (P47900 whole entry): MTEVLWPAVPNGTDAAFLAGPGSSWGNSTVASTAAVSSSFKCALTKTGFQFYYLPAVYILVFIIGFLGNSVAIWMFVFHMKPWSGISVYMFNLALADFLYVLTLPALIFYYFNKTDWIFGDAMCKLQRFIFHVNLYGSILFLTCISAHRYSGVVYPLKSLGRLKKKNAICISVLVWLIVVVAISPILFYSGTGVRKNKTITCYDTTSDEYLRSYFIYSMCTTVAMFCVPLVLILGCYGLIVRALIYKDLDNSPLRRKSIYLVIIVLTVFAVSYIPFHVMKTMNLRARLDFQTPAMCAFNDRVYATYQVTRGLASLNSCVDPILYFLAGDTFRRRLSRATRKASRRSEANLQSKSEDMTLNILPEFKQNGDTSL
pEC50: −log10 of the molar value.
Recorded endpoint: pEC50

>>> print(df.to_string())
                            molecule_smiles  numeric_readout
0  Nc1nc(Cl)nc2c1ncn2[C@H]1[C@H](O)[C@H](O)[C@@]2(COP(=O)(O)O)C[C@H]12             6.14

Origin of the recorded values: ChEMBL document CHEMBL1157658
